# STUDY_TARGET: dAsCas12a E174R (Acidaminococcus sp., UniProt U2UMQ6 1-1307, E174R;D908A;E993A;D1235A)
# ASSAY_INFO: Spec-seq (native PAGE EMSA with sequencing of bound and unbound); 25 mM Tris-HCl pH 7.4, 150 mM KCl, 5 mM MgCl2, 10% glycerol, 1 mM DTT, 40 ng/uL salmon sperm DNA; 400 nM Cas12a, 480 nM crRNA, 50 nM library, 37 C 1 h; native PAGE at room temperature; high values mean tight binding;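 further: relative affinity from the bound to unbound sequence frequency ratio in Spec-seq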
# CONDITION_LABEL: protein: recombinant
READOUT_NAME: binding signal (lnKA)
Numbers only; they are read as lnKA.

The following binders have reported results that may help.
| BINDER | OBSERVED_MEASUREMENT |
| --- | --- |
| CTCA (dsDNA) DNA 1: GCTATCTAGTGCTCAGTACGCACTGCTCAAGGAAACTTCTGGCAGGACCAGGTCATGAGATCGGAAGAGCACACGTCTGAACTCCAGTCA DNA 2: TGACTGGAGTTCAGACGTGTGCTCTTCCGATCTCATGACCTGGTCCTGCCAGAAGTTTCCTTGAGCAGTGCGTACTGAGCACTAGATAGC RNA: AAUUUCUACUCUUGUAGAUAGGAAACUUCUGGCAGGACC | -8.26 |
| GTTG (dsDNA) DNA 1: GCTATCTAGTGCTCAGTACGCACTGGTTGAGGAAACTTCTGGCAGGACCAGGTCATGAGATCGGAAGAGCACACGTCTGAACTCCAGTCA DNA 2: TGACTGGAGTTCAGACGTGTGCTCTTCCGATCTCATGACCTGGTCCTGCCAGAAGTTTCCTCAACCAGTGCGTACTGAGCACTAGATAGC RNA: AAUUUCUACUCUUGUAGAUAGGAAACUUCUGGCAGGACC | -5.33 |
| ATTA (dsDNA) DNA 1: GCTATCTAGTGCTCAGTACGCACTGATTAAGGAAACTTCTGGCAGGACCAGGTCATGAGATCGGAAGAGCACACGTCTGAACTCCAGTCA DNA 2: TGACTGGAGTTCAGACGTGTGCTCTTCCGATCTCATGACCTGGTCCTGCCAGAAGTTTCCTTAATCAGTGCGTACTGAGCACTAGATAGC RNA: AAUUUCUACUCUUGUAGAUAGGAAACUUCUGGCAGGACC | -2.6 |

// field: binding signal; key: ATAA (dsDNA) DNA 1: GCTATCTAGTGCTCAGTACGCACTGATAAAGGAAACTTCTGGCAGGACCAGGTCATGAGATCGGAAGAGCACACGTCTGAACTCCAGTCA DNA 2: TGACTGGAGTTCAGACGTGTGCTCTTCCGATCTCATGACCTGGTCCTGCCAGAAGTTTCCTTTATCAGTGCGTACTGAGCACTAGATAGC RNA: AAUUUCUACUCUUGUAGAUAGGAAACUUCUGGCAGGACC ; value = -8.75

Please fill in: binding signal reported for ATTG (dsDNA) DNA 1: GCTATCTAGTGCTCAGTACGCACTGATTGAGGAAACTTCTGGCAGGACCAGGTCATGAGATCGGAAGAGCACACGTCTGAACTCCAGTCA DNA 2: TGACTGGAGTTCAGACGTGTGCTCTTCCGATCTCATGACCTGGTCCTGCCAGAAGTTTCCTCAATCAGTGCGTACTGAGCACTAGATAGC RNA: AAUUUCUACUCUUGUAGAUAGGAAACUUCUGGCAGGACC = -4.83
